- system: human FVIIa (Homo sapiens (Human), UniProt P08709)
- Sequence (P08709 61-212): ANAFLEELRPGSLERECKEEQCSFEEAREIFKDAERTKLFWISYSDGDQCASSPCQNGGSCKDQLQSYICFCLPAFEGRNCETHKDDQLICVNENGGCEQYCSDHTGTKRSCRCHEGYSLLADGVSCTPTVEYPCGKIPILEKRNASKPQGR
- Sequence (P08709 213-466): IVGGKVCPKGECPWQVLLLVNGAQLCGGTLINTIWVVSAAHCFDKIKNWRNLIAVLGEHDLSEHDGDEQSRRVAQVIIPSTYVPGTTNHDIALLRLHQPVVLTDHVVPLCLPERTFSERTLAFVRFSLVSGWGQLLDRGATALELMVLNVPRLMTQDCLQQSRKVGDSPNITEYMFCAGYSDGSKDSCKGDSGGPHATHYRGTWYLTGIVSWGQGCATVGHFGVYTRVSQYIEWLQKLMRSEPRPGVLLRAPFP
- Sequence (P13726 33-295 partner): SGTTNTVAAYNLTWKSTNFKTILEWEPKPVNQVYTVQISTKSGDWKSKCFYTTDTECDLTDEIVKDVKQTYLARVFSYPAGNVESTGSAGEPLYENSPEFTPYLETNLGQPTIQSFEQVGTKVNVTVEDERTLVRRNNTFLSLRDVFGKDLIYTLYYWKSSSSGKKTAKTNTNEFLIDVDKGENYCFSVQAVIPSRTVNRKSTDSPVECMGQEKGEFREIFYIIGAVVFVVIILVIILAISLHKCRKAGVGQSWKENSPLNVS
- run description: FVIIa Ki (37° C.), FVIIa-Xase assay
- Type: biochemical
- test parameters: read-out: FVIIa Ki, nM 37° C.
measured metric: Ki (nM)
Give the value in nM but do not write nM after it.

Prompt: Item Cc1cc2ccc1[C@@H](C)COC(=O)Nc1ccc(S(=O)(=O)C(C)(C)C)c(c1)CN(C)C(=O)[C@@H]2Nc1ccc2c(N)nccc2c1.O=C(O)C(F)(F)F (stereo in doubt) has what recorded Ki?
Response: 0.31

Prompt: Item "Cc1cc2ccc1[C@@H](C)COC(=O)Nc1ccc(S(=O)(=O)C(C)C)c(c1)CN(C)C(=O)[C@@H]2Nc1ccc2c(N)ncc(F)c2c1.O=C(O)C(F)(F)F" has what recorded Ki?
Response: 1.2

Prompt: Item "Cc1cc2ccc1[C@@H](C)COC(=O)Nc1cc(F)c(S(=O)(=O)C(C)C)c(c1)CN(C)C(=O)[C@@H]2Nc1cc(F)c2c(N)nccc2c1.O=C(O)C(F)(F)F" has what recorded Ki?
Response: 0.36

Prompt: Item CCS(=O)(=O)c1ccc2cc1CNC(=O)[C@H](Nc1ccc3c(N)nccc3c1)c1cc(C)c(c(C)c1)CCOC(=O)N2 [Comparator 3, reference compound] has what recorded Ki?
Response: 1.1

Prompt: Item "Cc1cc2ccc1[C@@H](C(F)F)COC(=O)Nc1ccc(S(=O)(=O)C3CC3)c(c1)CN(C)C(=O)[C@@H]2Nc1ccc2c(N)nccc2c1.O=C(O)C(F)(F)F" has what recorded Ki?
Response: 0.5

Prompt: Item "Cc1cc2ccc1[C@@H](C)COC(=O)Nc1ccc(C3(c4nnn[nH]4)CC3)c(c1)CN(C)C(=O)[C@@H]2Nc1ccc2c(N)nccc2c1.O=C(O)C(F)(F)F" has what recorded Ki?
Response: 0.12

Prompt: Item "COCCCOc1c(F)cc2cc1CN(C)C(=O)[C@H](Nc1ccc3c(N)nccc3c1)c1ccc(c(C)c1)[C@@H](C)COC(=O)N2.O=C(O)C(F)(F)F" has what recorded Ki?
Response: 0.2

Prompt: Item "Cc1cc2ccc1[C@@H](C)COC(=O)Nc1cc(F)c(OCCN3CCCC3=O)c(c1)CN(C)C(=O)[C@@H]2Nc1ccc2c(N)nccc2c1.O=C(O)C(F)(F)F" has what recorded Ki?
Response: 0.14
